# target.system: PPARγ ligand binding domain fused to the yeast GAL4 DNA binding domain (Homo sapiens, UniProt P37231)
# Sequence (P37231 238-503 limits assumed): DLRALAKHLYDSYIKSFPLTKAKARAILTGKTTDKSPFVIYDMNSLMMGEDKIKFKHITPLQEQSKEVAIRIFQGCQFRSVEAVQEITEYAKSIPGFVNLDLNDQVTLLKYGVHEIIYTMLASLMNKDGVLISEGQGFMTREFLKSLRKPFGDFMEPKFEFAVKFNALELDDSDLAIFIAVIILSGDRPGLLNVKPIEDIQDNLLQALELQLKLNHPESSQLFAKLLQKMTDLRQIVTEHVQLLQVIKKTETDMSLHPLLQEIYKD
# protocol.text: Transfection assay for PPAR receptors (GAL4-LBD luciferase reporter), PPAR gamma
# settings: HEK293 cells, GAL4 (UAS) luciferase reporter, 18-24 hrs
measurement.kind: pEC50
Expect pEC50 as a plain number equal to -log10 of the molar concentration.

Which pEC50 value belongs to CCC(COc1ccc(C(F)(F)F)cc1)CSc1ccc(OC(C)(C)C(=O)O)c(C)c1 (centres unmarked) ?
6.56

Follow-up entry: CCOC(COc1ccc(C(F)(F)F)cc1)CSc1ccc(OC(C)(C)C(=O)O)c(C)c1 (centres unmarked)
6.25
